Target sequence: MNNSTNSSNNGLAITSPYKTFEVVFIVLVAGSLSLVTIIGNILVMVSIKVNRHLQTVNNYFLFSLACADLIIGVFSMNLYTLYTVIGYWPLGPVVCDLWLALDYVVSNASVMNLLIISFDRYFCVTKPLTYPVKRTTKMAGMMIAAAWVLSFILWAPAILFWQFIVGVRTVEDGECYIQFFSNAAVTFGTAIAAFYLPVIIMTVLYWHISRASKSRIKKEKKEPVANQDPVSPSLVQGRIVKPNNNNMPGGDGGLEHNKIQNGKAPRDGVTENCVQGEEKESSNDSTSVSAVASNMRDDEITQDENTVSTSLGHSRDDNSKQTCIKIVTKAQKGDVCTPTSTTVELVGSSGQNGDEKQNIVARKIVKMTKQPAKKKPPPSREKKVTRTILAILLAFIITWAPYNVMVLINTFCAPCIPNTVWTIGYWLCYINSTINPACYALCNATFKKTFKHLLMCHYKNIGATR
endpoint.label: IC50 (µM)

{"columns": ["molecule", "endpoint.label", "observed"],
 "data": [
  ["O=C(NCCN1CCN(c2cccc(Cl)c2)CC1)C12CC3CC(CC1C3)C2 [Example 15]", "IC50", 11]
]}
